These measurements were taken from patent US9828330B2.

Assay: Brain-to-plasma ratio after intraperitoneal administration in male CD-1 mice (LC-MS/MS of plasma and brain homogenate)
Format: in vivo
Conditions: male, CD-1, mouse, brain/plasma, ip, 50 mg/kg, 1.0 hr after IP dosing at 50 mg/kg, individual mice; read-out: B:P Ratio
Measured Property: Kp at 1 h
Please respond with just the number, no unit label.

-- ask # return recorded Kp at 1 h for entry CC(c1ccc(N(CCO)CCO)cc1)c1ccc(N(CCO)CCO)cc1
-- reply 0.35

====

Test: Brain-to-plasma ratio after intraperitoneal administration in male CD-1 mice (LC-MS/MS of plasma and brain homogenate)
Format: in vivo
Conditions: male, CD-1, mouse, brain/plasma, ip, 50 mg/kg, 3.0 hr after IP dosing at 50 mg/kg, mean of mice (Compound-3: one animal only); read-out: Average B:P Ratio
Measured Property: Kp at 3 h
Form field (numeric): enter value without unit.

-- ask Fill in reported Kp at 3 h for this entry: CC(c1ccc(N(CCO)CCO)cc1)c1ccc(N(CCO)CCO)cc1
-- reply 1.14

-- ask Tell me Kp at 3 h reported for COCCN(CCOC)c1ccc(C(C)c2ccc(N(CCOC)CCOC)cc2)cc1
-- reply 0.57

====

Assay: Brain-to-plasma ratio after intraperitoneal administration in male CD-1 mice (LC-MS/MS of plasma and brain homogenate)
Type: in vivo
Settings: male, CD-1, mouse, brain/plasma, ip, 50 mg/kg, 1.0 hr after IP dosing at 50 mg/kg, mean of mice; read-out: Average B:P Ratio
Measured Property: Kp at 1 h
Please give the numeric answer without any surrounding text.

-- ask Answer with the recorded Kp at 1 h of CC(c1ccc(N(CCO)CCO)cc1)c1ccc(N(CCO)CCO)cc1 only.
-- reply 0.328

-- ask Report Kp at 1 h, nothing else, for this compound: COCCN(CCOC)c1ccc(C(C)c2ccc(N(CCOC)CCOC)cc2)cc1
-- reply 0.638

====

Test: Brain-to-plasma ratio after intraperitoneal administration in male CD-1 mice (LC-MS/MS of plasma and brain homogenate)
Type: in vivo
Settings: male, CD-1, mouse, brain, ip, 50 mg/kg, 3.0 hr after IP dosing at 50 mg/kg, individual mice; read-out: Brain Tissue Conc
Measured Property: concentration at 3 h (ng/mL)
Kindly provide the numeric value in ng/mL only, without the unit symbol.

-- ask Determine from records and report concentration at 3 h for CC(c1ccc(N(CCO)CCO)cc1)c1ccc(N(CCO)CCO)cc1
-- reply 3060

====

Test: Brain-to-plasma ratio after intraperitoneal administration in male CD-1 mice (LC-MS/MS of plasma and brain homogenate)
Type: in vivo
Settings: male, CD-1, mouse, brain homogenate, ip, 50 mg/kg, 1.0 hr after IP dosing at 50 mg/kg, individual fasted male CD-1 mice; read-out: Brain Tissue Homogen. Conc
Measured Property: concentration at 1 h (ng/mL)
Reply numerically in ng/mL, unit not repeated.

-- ask Input CC(c1ccc(N(CCO)CCO)cc1)c1ccc(N(CCO)CCO)cc1 , output reported concentration at 1 h.
-- reply 2210

====

Assay: Brain-to-plasma ratio after intraperitoneal administration in male CD-1 mice (LC-MS/MS of plasma and brain homogenate)
Assay type: in vivo
Conditions: male, CD-1, mouse, brain, ip, 50 mg/kg, 1.0 hr after IP dosing at 50 mg/kg, individual mice; read-out: Brain Tissue Conc
Measured Property: concentration at 1 h (ng/mL)
Report the value in ng/mL with no unit label.

-- ask Read the entry CC(c1ccc(N(CCO)CCO)cc1)c1ccc(N(CCO)CCO)cc1 and write its reported concentration at 1 h.
-- reply 11100
